Test system: LG0703-F948-PDC complex spheroid viability
Test: Anticancer human tumor LG0703-F948-PDC patient-derived lung adenocarcinoma cell line growth inhibition [RAS]
Conditions: second compound 0.0949 µM; first compound 0.316 µM; stronger effect = lower value
From the text: RAS pathway inhibitors in Combinations in Complex Spheroids A high-throughput screen of multi-cell type tumor spheroids was designed to identify active combinations of RAS pathway inhibitors and targeted small molecules. Complex spheroids include a stromal component modeled by human endothelial cells (HUVEC) and fibroblasts modeled by human mesenchymal stem cells (MSCs). […] Compounds. […] If the clinical Cmax for an agent had not been determined, the highest concentration tested was 10 microM. […]
recordedEndpoint: viability, T/C (%)
The answer is to be given in %; state only the numeric part.

C=CC(=O)Nc1cc(Nc2nccc(-c3cn(C)c4ccccc34)n2)c(OC)cc1N(C)CCN(C)C + CCn1c(-c2cccnc2C(C)OC)c2c3cc(ccc31)N1CCOC(CC(NC(=O)C(C(C)C)N(C)C(=O)C3(F)CCN(C(=O)C#CC(C)(C)N(C)C)CC3)C(=O)N3CCCC(N3)C(=O)OCC(C)(C)C2)C1: 13.9
CC(Nc1ccc2c(c1)OCCn1cc(N3C(=O)OCC3C(F)F)nc1-2)C(N)=O (stereo unspecified) + CCn1c(-c2cccnc2C(C)OC)c2c3cc(ccc31)N1CCOC(CC(NC(=O)C(C(C)C)N(C)C(=O)C3(F)CCN(C(=O)C#CC(C)(C)N(C)C)CC3)C(=O)N3CCCC(N3)C(=O)OCC(C)(C)C2)C1: 54.3
NC1c2ccccc2OC12CCN(c1cnc3c(N4CCCc5ncccc54)n[nH]c3n1)CC2 (stereo unspecified) + CCn1c(-c2cc(N3CCN(C)CC3)cnc2C(C)OC)c2c3cc(ccc31)-c1csc(n1)CC(NC(=O)C1CC1C)C(=O)N1CCCC(N1)C(=O)OCC(C)(C)C2: 4.01
Nc1ccn(C2OC(CO)C(O)C2(F)F)c(=O)n1 (stereo unspecified) + CCn1c(-c2cccnc2C(C)OC)c2c3cc(ccc31)N1CCOC(CC(NC(=O)C(C(C)C)N(C)C(=O)C3(F)CCN(C(=O)C#CC(C)(C)N(C)C)CC3)C(=O)N3CCCC(N3)C(=O)OCC(C)(C)C2)C1: 27.8
NC1c2ccccc2OC12CCN(c1cnc3c(N4CCCc5ncccc54)n[nH]c3n1)CC2 (stereo unspecified) + CCn1c(-c2cccnc2C(C)OC)c2c3cc(ccc31)N1CCOC(CC(NC(=O)C(C(C)C)N(C)C(=O)C3(F)CCN(C(=O)C#CC(C)(C)N(C)C)CC3)C(=O)N3CCCC(N3)C(=O)OCC(C)(C)C2)C1: 12

Now for a further compound.
QUERY: Name the reported viability, T/C value associated with the compound CCN1CCN(Cc2ccc(Nc3ncc(F)c(-c4cc(F)c5nc(C)n(C(C)C)c5c4)n3)nc2)CC1 + CCn1c(-c2cccnc2C(C)OC)c2c3cc(ccc31)N1CCOC(CC(NC(=O)C(C(C)C)N(C)C(=O)C3(F)CCN(C(=O)C#CC(C)(C)N(C)C)CC3)C(=O)N3CCCC(N3)C(=O)OCC(C)(C)C2)C1
RESULT: 84.8

###

Tested on: LG0703-F948-PDC complex spheroid viability
Experiment: Anticancer human tumor LG0703-F948-PDC cell line growth inhibition [RAS];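 further: spheroids exposed to agents for 7 days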;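 on viability, T/C: 100% = DMSO vehicle wells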
Conditions: second compound 0.00949 µM; first compound 0.0316 µM; stronger effect = lower value
# viability, T/C values compiled below
The answer is to be given in %; state only the numeric part.

QUERY: Recorded viability, T/C for CCN1CCN(Cc2ccc(Nc3ncc(F)c(-c4cc(F)c5nc(C)n(C(C)C)c5c4)n3)nc2)CC1 + CCn1c(-c2cc(N3CCN(C)CC3)cnc2C(C)OC)c2c3cc(ccc31)-c1csc(n1)CC(NC(=O)C1CC1C)C(=O)N1CCCC(N1)C(=O)OCC(C)(C)C2 , please?
RESULT: 28.4

###

IC50: recorded values
Tested on: LG0703-F948-PDC complex spheroid viability
Assay: Anticancer human tumor LG0703-F948-PDC cell line growth inhibition [RAS];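 further: spheroids exposed to agents for 7 days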
Details: curve of first compound; second compound 3.16 µM

CCN1CCN(Cc2ccc(Nc3ncc(F)c(-c4cc(F)c5nc(C)n(C(C)C)c5c4)n3)nc2)CC1 + C#Cc1c(F)ccc2cc(O)cc(-c3ncc4c(N5CC6CCC(C5)N6)nc(OCC56CCCN5CC(F)C6)nc4c3F)c12: > 1000 nM
CC1(C)CCC(Nc2ncc(C(F)(F)F)c(-c3c[nH]c4c(P(C)(C)=O)c(C#N)ccc34)n2)CN1 (stereo not given) + C#Cc1c(F)ccc2cc(O)cc(-c3ncc4c(N5CC6CCC(C5)N6)nc(OCC56CCCN5CC(F)C6)nc4c3F)c12: > 300 nM
C[C@@H](NC(=O)c1ncnc(N)c1Cl)c1ncc(C(=O)Nc2cc(C(F)(F)F)c(Cl)cn2)s1 + C#Cc1c(F)ccc2cc(O)cc(-c3ncc4c(N5CC6CCC(C5)N6)nc(OCC56CCCN5CC(F)C6)nc4c3F)c12: > 10000 nM

QUERY: Any idea what IC50 was measured for C=CC(=O)Nc1cc(Nc2nccc(-c3cn(C)c4ccccc34)n2)c(OC)cc1N(C)CCN(C)C + C#Cc1c(F)ccc2cc(O)cc(-c3ncc4c(N5CC6CCC(C5)N6)nc(OCC56CCCN5CC(F)C6)nc4c3F)c12 ?
RESULT: < 3.16 nM

QUERY: IC50 for C=CC(=O)N1CCN(c2nc(OCC3CCCN3C)nc3c(F)c(-c4nc(N)cc(C)c4C(F)(F)F)c(Cl)cc23)C(C)C1 (stereo not given) + C#Cc1c(F)ccc2cc(O)cc(-c3ncc4c(N5CC6CCC(C5)N6)nc(OCC56CCCN5CC(F)C6)nc4c3F)c12 ?
RESULT: > 1000 nM

###

The entries below come with measured viability, T/C values attached.
Tested on: LG0703-F948-PDC complex spheroid viability
Assay: Anticancer human tumor LG0703-F948-PDC cell line growth inhibition [RAS];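 further: spheroids exposed to agents for 7 days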;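 on viability, T/C: 100% = DMSO vehicle wells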
Conditions: second compound 0.000949 µM; first compound 0.1 µM; stronger effect = lower value
Write the number in % without appending the unit.

CCC(CC)c1cc(NC2CCC(N)C2)n2nccc2n1 (stereo unspecified) + CCn1c(-c2cccnc2C(C)OC)c2c3cc(ccc31)N1CCOC(CC(NC(=O)C(C(C)C)N(C)C(=O)C3(F)CCN(C(=O)C#CC(C)(C)N(C)C)CC3)C(=O)N3CCCC(N3)C(=O)OCC(C)(C)C2)C1: 89.9

QUERY: Param item = C=CC(=O)N1CCN(c2nc(OCC3CCCN3C)nc3c(F)c(-c4nc(N)cc(C)c4C(F)(F)F)c(Cl)cc23)C(C)C1 (stereo unspecified) + CCn1c(-c2cccnc2C(C)OC)c2c3cc(ccc31)N1CCOC(CC(NC(=O)C(C(C)C)N(C)C(=O)C3(F)CCN(C(=O)C#CC(C)(C)N(C)C)CC3)C(=O)N3CCCC(N3)C(=O)OCC(C)(C)C2)C1 ; retrieve measured viability, T/C.
RESULT: 88

QUERY: Return reported viability, T/C; argument: Cc1nc(N2CCC3(CC2)COC(C)C3N)c(CO)nc1Sc1ccnc(N)c1Cl (stereo unspecified) + CCn1c(-c2cccnc2C(C)OC)c2c3cc(ccc31)N1CCOC(CC(NC(=O)C(C(C)C)N(C)C(=O)C3(F)CCN(C(=O)C#CC(C)(C)N(C)C)CC3)C(=O)N3CCCC(N3)C(=O)OCC(C)(C)C2)C1
RESULT: 68.4

###

Test system: LG0703-F948-PDC complex spheroid viability
Experiment: Anticancer human tumor LG0703-F948-PDC cell line growth inhibition [RAS];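 further: spheroids exposed to agents for 7 days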
Conditions: curve of first compound; second compound 0.00949 µM
pIC50: −log10 of the molar value.
recordedEndpoint: pIC50

Solved entries (count: 3):
CC1(C)CCC(Nc2ncc(C(F)(F)F)c(-c3c[nH]c4c(P(C)(C)=O)c(C#N)ccc34)n2)CN1 (centres undefined) + CCn1c(-c2cccnc2C(C)OC)c2c3cc(ccc31)N1CCOC(CC(NC(=O)C(C(C)C)N(C)C(=O)C3(F)CCN(C(=O)C#CC(C)(C)N(C)C)CC3)C(=O)N3CCCC(N3)C(=O)OCC(C)(C)C2)C1: < 6.52
C=CC(=O)Nc1cc(Nc2nccc(-c3cn(C)c4ccccc34)n2)c(OC)cc1N(C)CCN(C)C + CCn1c(-c2cc(N3CCN(C)CC3)cnc2C(C)OC)c2c3cc(ccc31)-c1csc(n1)CC(NC(=O)C1CC1C)C(=O)N1CCCC(N1)C(=O)OCC(C)(C)C2: > 8.50
C=CC(=O)N1CCN(c2nc(OCC3CCCN3C)nc3c(F)c(-c4nc(N)cc(C)c4C(F)(F)F)c(Cl)cc23)C(C)C1 (centres undefined) + CCn1c(-c2cccnc2C(C)OC)c2c3cc(ccc31)N1CCOC(CC(NC(=O)C(C(C)C)N(C)C(=O)C3(F)CCN(C(=O)C#CC(C)(C)N(C)C)CC3)C(=O)N3CCCC(N3)C(=O)OCC(C)(C)C2)C1: < 6.00

QUERY: If you can, please state the reported pIC50 value of CC(=O)OC12COC1CC(O)C1(C)C(=O)C(O)C3=C(C)C(OC(=O)C(O)C(NC(=O)OC(C)(C)C)c4ccccc4)CC(O)(C(OC(=O)c4ccccc4)C21)C3(C)C (centres undefined) + CCn1c(-c2cc(N3CCN(C)CC3)cnc2C(C)OC)c2c3cc(ccc31)-c1csc(n1)CC(NC(=O)C1CC1C)C(=O)N1CCCC(N1)C(=O)OCC(C)(C)C2 .
RESULT: > 7.50
